experimental_readout: melting point

Below: 4 molecules and their reported melting point.
- molecule: "NC(=O)c1sc2nccc(N3CCCN(c4ncnc5ccccc45)CC3)c2c1N"
  experimental_readout: "melting point"
  readout_value: "228 to 231 °C"
- molecule: "CCOc1ccc(N2CCCN(c3ccnc4sc(C(N)=O)c(N)c34)CC2)cc1"
  experimental_readout: "melting point"
  readout_value: "181 to 183 °C"
- molecule: "CCOc1ccnc2sc(C(N)=O)c(N)c12"
  experimental_readout: "melting point"
  readout_value: "241 to 243 °C"
- molecule: "NC(=O)c1sc2nccc(N3CCC[S+]([O-])CC3)c2c1N (centres unmarked)"
  experimental_readout: "melting point"
  readout_value: "111 to 119 °C"

Prompt line: Give its melting point value. Item: NC(=O)c1sc2nccc(NC3CCCCC3)c2c1N
Response line: 244 to 247 °C

Prompt line: Give its melting point value. Item: NC(=O)c1sc2nccc(N3CCCN(c4c(F)c(F)nc(F)c4F)CC3)c2c1N
Response line: 228 to 231 °C

Prompt line: Give its melting point value. Item: CC(C)N1CCN(c2ccnc3sc(C(N)=O)c(N)c23)CC1
Response line: 240 to 243 °C

Prompt line: Give its melting point value. Item: COc1ccccc1N1CCCN(c2ccnc3sc(C(N)=O)c(N)c23)CC1
Response line: 179 to 184 °C

Prompt line: Give its melting point value. Item: NC(=O)c1sc2nccc(N3CCN(c4ccccc4Cl)CC3)c2c1N
Response line: 294 to 298 °C (dec.)

Prompt line: Give its melting point value. Item: CCN(CC)c1ccnc2sc(C(N)=O)c(N)c12
Response line: 127 to 129 °C

Prompt line: Give its melting point value. Item: Cc1cc(N(C)C)c2c(N)c(C(N)=O)sc2n1
Response line: 167 to 170 °C

Prompt line: Give its melting point value. Item: NC(=O)c1sc2nccc(N3CCCN(c4ccc(Cl)cc4)CC3)c2c1N
Response line: 92 to 96 °C

Prompt line: Give its melting point value. Item: CCCNc1ccnc2sc(C(N)=O)c(N)c12
Response line: 214 to 215 °C

###

experimental_readout: melting point

- compound: "Cc1ccc(N2CCN(c3ccnc4sc(C(N)=O)c(N)c34)CC2)cc1"
  melting point: "270 °C (dec.)"
- compound: "NC(=O)c1sc2nccc(N3CCN(c4ccc(F)cc4)CC3)c2c1N"
  melting point: "275 °C (dec.)"
- compound: "COCC1CCCN(c2ccnc3sc(C(N)=O)c(N)c23)C1 (stereo not drawn)"
  melting point: "229 to 230 °C"

Now consider the entry below.
Prompt line: Give its melting point value. Item: NC(=O)c1sc2nccc(N3CCCN(c4cccc([N+](=O)[O-])c4)CC3)c2c1N
Response line: 180 to 185 °C

###

experimental_readout: melting point

- compound: "COc1ccc(N2CCN(c3ccnc4sc(C(N)=O)c(N)c34)CC2)cc1 [Example 49]"
  melting point: "275 °C (dec.)"
- compound: "CC1CCCN(c2ccnc3sc(C(N)=O)c(N)c23)C1 (stereo not drawn) [Example 16]"
  melting point: "201 to 204 °C"

Prompt line: Give its melting point value. Item: NC(=O)c1sc2nccc(N3CCCC(O)C3)c2c1N (stereo not drawn) [Example 36]
Response line: 208 to 211 °C

Prompt line: Give its melting point value. Item: Cc1cc(N2CCN(c3ccccc3)CC2)c2c(N)c(C(N)=O)sc2n1 [Example 75]
Response line: 247 to 250 °C

Prompt line: Give its melting point value. Item: NC(=O)c1sc2nccc(N3CCN(C(c4ccccc4)c4ccccc4)CC3)c2c1N [Example 48]
Response line: 225 to 233 °C

Prompt line: Give its melting point value. Item: NC(=O)c1sc2nccc(N3CCCCC3)c2c1N [Example 14]
Response line: 191 to 192 °C

###

Catalogue of compounds with associated melting point

Below: 2 compounds and their reported melting point.
- compound: "NC(=O)c1sc2nccc(N3CCc4ccccc4C3)c2c1N"
  melting point: "244 to 245 °C"
- compound: "Cc1cccc(N2CCN(c3ccnc4sc(C(N)=O)c(N)c34)CC2C)c1 (stereo not shown)"
  melting point: "215 to 217 °C"

Now consider the entry below.
Prompt line: Give its melting point value. Item: NC(=O)c1sc2nccc(N3CCN(c4ncccn4)CC3)c2c1N
Response line: 280 °C (dec.)

###

experimental_readout: melting point

- compound: "NC(=O)c1sc2nccc(N3CCSCC3)c2c1N [Example 24]"
  readout_value: "255 to 258 °C"
- compound: "CN(C)c1ccc(N2CCCN(c3ccnc4sc(C(N)=O)c(N)c34)CC2)cc1 [Example 74]"
  readout_value: "174 to 176 °C"
- compound: "NC(=O)c1sc2nccc(N3CC[C@@H]4CCCC[C@@H]4C3)c2c1N (relative stereo) [Example 29]"
  readout_value: "224 to 226 °C"
- compound: "CC(C)CNc1ccnc2sc(C(N)=O)c(N)c12 [Example 5]"
  readout_value: "117 to 119 °C"
- compound: "NC(=O)c1sc2nccc(N3CCCCCCC3)c2c1N [Example 26]"
  readout_value: "222 to 224 °C"

Prompt line: Give its melting point value. Item: NC(=O)c1sc2nccc(N3CCCN(c4ccc(Cl)nn4)CC3)c2c1N [Example 105]
Response line: 232 to 234 °C

Prompt line: Give its melting point value. Item: Cl.Cl.NC(=O)c1sc2nccc(N3CCCNCC3)c2c1N
Response line: > 295 °C

Prompt line: Give its melting point value. Item: NC(=O)c1sc2nccc(N3CCCOCC3)c2c1N [Example 30]
Response line: 175 to 176 °C

###

experimental_readout: melting point

- compound: "Cc1cc(N2CCCN(c3ccnc4sc(C(N)=O)c(N)c34)CC2)ccc1F [Example 69]"
  melting point: "194 to 197 °C"
- compound: "CCN1CCN(c2ccnc3sc(C(N)=O)c(N)c23)CC1 [Example 40]"
  melting point: "218 to 219 °C"
- compound: "NC(=O)c1sc2nccc(N3CCN(C(=O)c4ccccc4)CC3)c2c1N [Example 51]"
  melting point: "> 300 °C"
- compound: "COc1ccnc2sc(C(N)=O)c(N)c12 [Example 107]"
  melting point: "238 to 241 °C"
- compound: "CC(C)Oc1ccnc2sc(C(N)=O)c(N)c12 [Example 111]"
  melting point: "238 to 240 °C (dec.)"

Prompt line: Give its melting point value. Item: CC(=O)OC1CCN(c2ccnc3sc(C(N)=O)c(N)c23)CC1 [Example 20]
Response line: 231 to 235 °C

Prompt line: Give its melting point value. Item: NC(=O)c1sc2nccc(N3CCC(O)CC3)c2c1N [Example 19]
Response line: 239 to 241 °C

###

experimental_readout: melting point

Below: 2 molecules and their reported melting point.
- molecule: "Cc1ccccc1N1CCCN(c2ccnc3sc(C(N)=O)c(N)c23)CC1"
  melting point: "206 to 209 °C (dec.)"
- molecule: "NC(=O)c1sc2nccc(N3CCCC(CO)C3)c2c1N (centres unmarked)"
  melting point: "125 to 130 °C"

Prompt line: Give its melting point value. Item: NC(=O)c1sc2nccc(N3CCCCCC3)c2c1N
Response line: 219 to 221 °C

Prompt line: Give its melting point value. Item: NC(=O)c1sc2nccc(N3CCCN(c4ccc(F)cc4)CC3)c2c1N
Response line: 203 to 205 °C

Prompt line: Give its melting point value. Item: NC(=O)c1sc2nccc(N3CCCN(c4ccccc4Cl)CC3)c2c1N
Response line: 206 to 210 °C

###

Catalogue of compounds with associated melting point

Below: 2 compounds and their reported melting point.
- test_smiles: "N#Cc1ccc(N2CCCN(c3ccnc4sc(C(N)=O)c(N)c34)CC2)cc1"
  melting point: "151 to 153 °C"
- test_smiles: "Cc1ccc(N2CCCN(c3ccnc4sc(C(N)=O)c(N)c34)CC2)cc1[N+](=O)[O-]"
  melting point: "114 to 117 °C"

Now consider the entry below.
Prompt line: Give its melting point value. Item: Cc1ccc(N2CCCN(c3ccnc4sc(C(N)=O)c(N)c34)CC2)nc1
Response line: 205 to 208 °C

###

Catalogue of molecules with associated melting point

- molecule: "NC(=O)c1sc2nccc(N3CCCN(c4ccc(OCc5ccccc5)cc4)CC3)c2c1N [Example 79]"
  melting point: "211 to 213 °C"
- molecule: "CC(=O)c1ccc(N2CCCN(c3ccnc4sc(C(N)=O)c(N)c34)CC2)cc1 [Example 94]"
  melting point: "279 to 282 °C (dec.)"
- molecule: "NC(=O)c1sc2nccc(N3CCCSCC3)c2c1N [Example 33]"
  melting point: "171 to 174 °C"
- molecule: "NC(=O)c1sc2nccc(N3CCCN(c4ccccn4)CC3)c2c1N [Example 99]"
  melting point: "237 to 239 °C"
- molecule: "NC(=O)c1sc2nccc(N3CCCN(c4ccc(Br)cc4)CC3)c2c1N [Example 82]"
  melting point: "170 to 173 °C"

Prompt line: Give its melting point value. Item: CC(C)(C)c1ccc(N2CCCN(c3ccnc4sc(C(N)=O)c(N)c34)CC2)cc1 [Example 92]
Response line: 231 to 232 °C

Prompt line: Give its melting point value. Item: NC(=O)c1sc2nccc(N3CCCN(c4cccc(Cl)c4)CC3)c2c1N [Example 78]
Response line: 213 to 215 °C

Prompt line: Give its melting point value. Item: NC(=O)c1sc2nccc(N3CCN(Cc4ccccc4)CC3)c2c1N [Example 43]
Response line: 241 to 242 °C

Prompt line: Give its melting point value. Item: NC(=O)c1sc2nccc(N3CCCN(c4ccc(F)c(Cl)c4)CC3)c2c1N [Example 81]
Response line: 181 to 184 °C

Prompt line: Give its melting point value. Item: CSc1ccc(N2CCCN(c3ccnc4sc(C(N)=O)c(N)c34)CC2)cc1 [Example 64]
Response line: 186 to 188 °C

Prompt line: Give its melting point value. Item: CCc1ccc(N2CCCN(c3ccnc4sc(C(N)=O)c(N)c34)CC2)cc1 [Example 93]
Response line: 186 to 188 °C

Prompt line: Give its melting point value. Item: NC(=O)c1sc2nccc(N3CC[C@@H]4CCCC[C@H]4C3)c2c1N (relative stereo) [Example 28]
Response line: 285 to 288 °C
